test.details: Selectivity index, ratio of CC50 for human MT4 cells to EC50 for wild type HIV1 3B
Type: toxicity, cell-based
test.parameters: read-out: Ratio CC50/EC50
property.name: selectivity ratio
Keep the answer to the number alone.

Given the compound "Cc1cc(C)c(Nc2nc(N)nc(NC3CCN(Cc4ccccc4)CC3)n2)c(C)c1" , write its reported selectivity ratio. 2300

Identify selectivity ratio associated with the compound "COc1nc(Nc2c(C)cc(C)cc2C)nc(NC2CCN(Cc3ccc(C(N)=O)cc3)CC2)n1" 3870

Name the recorded selectivity ratio of the item "COc1nc(Nc2c(C)cc(C)cc2C)nc(NC2CCN(Cc3ccc(S(N)(=O)=O)cc3)CC2)n1" in your answer. 1850

Fill in reported selectivity ratio for this entry: "CCOC(=O)c1ccc(CN2CCC(Nc3nc(NC)nc(Nc4c(C)cc(C)cc4C)n3)CC2)cc1" 297

---
Please give the documented selectivity ratio of "Cc1cc(C)c(Nc2nc(N)nc(NC3CCN(Cc4ccc([N+](=O)[O-])cc4)CC3)n2)c(C)c1" 439

---

test.details: Cytotoxicity against human MT4 cells after 5 days by MTT assay
Assay type: cell-based
Threshold 20 µM: CC50 at 120 h strictly smaller gives class 1, otherwise class 0.

Use the examples below as a reference point.
Does this compound meet the criterion CC50 at 120 h < 20 µM? "Cc1cc(C)c(Nc2nc(N)nc(NC3CCN(Cc4ccccc4)CC3)n2)c(C)c1" class 0

Item "COc1nc(Nc2c(C)cc(C)cc2C)nc(NC2CCN(Cc3ccc(C(N)=O)cc3)CC2)n1" : CC50 at 120 h beneath 20 µM, strictly? class 0

Find out if reported CC50 at 120 h for "CNc1nc(Nc2c(C)cc(C)cc2C)nc(NC2CCN(Cc3ccncc3)CC2)n1" is less than 20 µM class 0

A record lists "CCOC(=O)c1ccc(CN2CCC(Nc3nc(Nc4c(C)cc(C)cc4C)nc(OC)n3)CC2)cc1" . Is its CC50 at 120 h below 20 µM? class 1

New cases:
Does "CCOC(=O)c1ccc(CN2CCC(Nc3nc(N)nc(Nc4c(C)cc(C)cc4C)n3)CC2)cc1" have CC50 at 120 h strictly under 20 µM? class 1

Lab log: compare recorded CC50 at 120 h with 20 µM; is it strictly lower for "COc1nc(Nc2c(C)cc(C)cc2C)nc(NC2CCN(Cc3ccc(S(C)(=O)=O)cc3)CC2)n1" ? class 1

Is CC50 at 120 h strictly under 20 µM for the entry "Cc1cc(C)c(Nc2nc(N)nc(NC3CCN(Cc4ccc(S(C)(=O)=O)cc4)CC3)n2)c(C)c1" ? class 1

Determine if "Cc1cc(C)c(Nc2nc(N)nc(NC3CCN(Cc4ccc([N+](=O)[O-])cc4)CC3)n2)c(C)c1" shows CC50 at 120 h strictly lower than 20 µM. class 1

# strict comparison: is reported CC50 at 120 h < 20 µM? input = "CCOC(=O)c1ccc(CN2CCC(Nc3nc(NC)nc(Nc4c(C)cc(C)cc4C)n3)CC2)cc1" class 1

Determine if "CNc1nc(Nc2c(C)cc(C)cc2C)nc(NC2CCN(Cc3ccc(C(N)=O)cc3)CC2)n1" shows CC50 at 120 h strictly lower than 20 µM. class 0

Does the reported CC50 at 120 h of "CNc1nc(Nc2c(C)cc(C)cc2C)nc(NC2CCN(Cc3ccc(S(C)(=O)=O)cc3)CC2)n1" stay below 20 µM? class 1

Does this compound meet the criterion CC50 at 120 h < 20 µM? Cc1cn([C@H]2C[C@H](N=[N+]=[N-])[C@@H](CO)O2)c(=O)[nH]c1=O [ZIDOVUDINE] class 0

---

test.details: Selectivity index, ratio of CC50 for human MT4 cells to EC50 for HIV1 RES056 harboring reverse transcriptase K103N/Y181C RT mutant
Assay type: toxicity, cell-based
test.parameters: read-out: Ratio CC50/EC50
property.name: selectivity ratio
The response must contain the number and no unit.

Recorded results for 2 compounds are shown here.
Answer with the recorded selectivity ratio for the compound listed here: "Cc1cc(C)c(Nc2nc(N)nc(NC3CCN(Cc4ccc(S(N)(=O)=O)cc4)CC3)n2)c(C)c1" 32

Look up and state reported selectivity ratio for "CNc1nc(Nc2c(C)cc(C)cc2C)nc(NC2CCN(Cc3ccc(S(N)(=O)=O)cc3)CC2)n1" 29

# context switch: different compound, same selectivity ratio
# return recorded selectivity ratio for input "Cc1cc(C)c(Nc2nc(N)nc(NC3CCN(Cc4ccccc4)CC3)n2)c(C)c1" 5

---

System: Human immunodeficiency virus 1
test.details: Fold resistance, ratio of EC50 for HIV1 RES056 harboring reverse transcriptase K103N/Y181C RT mutant to EC50 for wild type HIV1 3B
Assay type: functional
Collected Ratio EC50 values appear next to each entry.

Recorded Ratio EC50, per entry:
Give Ratio EC50 for this entry on Human immunodeficiency virus 1: CC(C)Nc1cccnc1N1CCN(C(=O)c2cc3cc(NS(C)(=O)=O)ccc3[nH]2)CC1.CS(=O)(=O)O [DELAVIRDINE MESYLATE] >1033.6

GET Ratio EC50 where system = Human immunodeficiency virus 1 and item = "Cc1cn([C@H]2C[C@H](N=[N+]=[N-])[C@@H](CO)O2)c(=O)[nH]c1=O" 1.9

Report value only: Ratio EC50, Human immunodeficiency virus 1, "Cc1cc(C)c(Nc2nc(N)nc(NC3CCN(Cc4ccc(S(C)(=O)=O)cc4)CC3)n2)c(C)c1" 887.5

Given "Cc1cc(C#N)cc(C)c1Oc1nc(Nc2ccc(C#N)cc2)nc(N)c1Br" , report its Ratio EC50 on Human immunodeficiency virus 1. 15.5

Please indicate recorded Ratio EC50 of "COc1nc(Nc2c(C)cc(C)cc2C)nc(NC2CCN(Cc3ccc(C(N)=O)cc3)CC2)n1" measured with Human immunodeficiency virus 1. 128.3

Further cases:
State recorded Ratio EC50 with Human immunodeficiency virus 1, entry "COc1nc(Nc2c(C)cc(C)cc2C)nc(NC2CCN(Cc3ccncc3)CC2)n1" , no comment. 111.1

Write Ratio EC50 of "Cc1ccnc2c1NC(=O)c1cccnc1N2C1CC1" ; system used: Human immunodeficiency virus 1 >75

Give the observed Ratio EC50 of "Cc1cc(C)c(Nc2nc(N)nc(NC3CCN(Cc4ccncc4)CC3)n2)c(C)c1" for Human immunodeficiency virus 1. 198.8

Report its Ratio EC50 with Human immunodeficiency virus 1 as the test system: "CNc1nc(Nc2c(C)cc(C)cc2C)nc(NC2CCN(Cc3ccncc3)CC2)n1" 76.4

For Human immunodeficiency virus 1, give the measured Ratio EC50 of the entry "CNc1nc(Nc2c(C)cc(C)cc2C)nc(NC2CCN(Cc3ccc(S(N)(=O)=O)cc3)CC2)n1" 72.7

---

Test system: Human immunodeficiency virus 1
test.details: Antiviral activity against HIV1 RES056 harboring reverse transcriptase K103N/Y181C mutant infected in human MT4 cells assessed as inhibition of virus-induced cytopathic effect after 5 days by MTT assay
Type: functional, organism-based
test.parameters: Human immunodeficiency virus 1, RES056, MT4, 120 h
property.name: EC50 (nM)
Please state the figure in nM; there is no need to write the unit.

Some solved entries appear below for comparison.
Dear colleague, please send me the reported EC50 for "Cc1cc(C)c(Nc2nc(N)nc(NC3CCN(Cc4ccncc4)CC3)n2)c(C)c1" when you can. 970

Entry "CNc1nc(Nc2c(C)cc(C)cc2C)nc(NC2CCN(Cc3ccc(C(N)=O)cc3)CC2)n1" needs its EC50 filled in; supply it. 560

Give the reported EC50 for this molecule. "COc1nc(Nc2c(C)cc(C)cc2C)nc(NC2CCN(Cc3ccc(S(N)(=O)=O)cc3)CC2)n1" 940

Provide only the value of recorded EC50 for "CNc1nc(Nc2c(C)cc(C)cc2C)nc(NC2CCN(Cc3ccc(S(C)(=O)=O)cc3)CC2)n1" 3330

Report measured EC50; entry is "CNc1nc(Nc2c(C)cc(C)cc2C)nc(NC2CCN(Cc3ccc(S(N)(=O)=O)cc3)CC2)n1" 510

Please examine the following record next.
Provide EC50 value for the following molecule: "Cc1cn([C@H]2C[C@H](N=[N+]=[N-])[C@@H](CO)O2)c(=O)[nH]c1=O" 10

---

test.details: Selectivity index, ratio of CC50 for human MT4 cells to EC50 for HIV1 RES056 harboring reverse transcriptase K103N/Y181C RT mutant
Type: toxicity, cell-based
test.parameters: read-out: Ratio CC50/EC50
property.name: selectivity ratio
Please reply with the number alone, leaving off any unit.

# annotated cases, reported selectivity ratio shown
Give the reported value of selectivity ratio for this record: "CNc1nc(Nc2c(C)cc(C)cc2C)nc(NC2CCN(Cc3ccc(S(C)(=O)=O)cc3)CC2)n1" 3

Give a short answer stating reported selectivity ratio for "COc1nc(Nc2c(C)cc(C)cc2C)nc(NC2CCN(Cc3ccc(C(N)=O)cc3)CC2)n1" . 30

Assign selectivity ratio to the following record: "Cc1cc(C#N)cc(C)c1Oc1nc(Nc2ccc(C#N)cc2)nc(N)c1Br" 817

Next:
In one line, give reported selectivity ratio of the entry "CNc1nc(Nc2c(C)cc(C)cc2C)nc(NC2CCN(Cc3ccc(C(N)=O)cc3)CC2)n1" . 49

Give the measured selectivity ratio for "COc1nc(Nc2c(C)cc(C)cc2C)nc(NC2CCN(Cc3ccncc3)CC2)n1" 21
